target: wild type UL97 (Human cytomegalovirus, UniProt Q68101); construct: PCR reaction to generate the full length UL97; honey bee melittin secretion signal (N); test: UL97 autophosphorylation protein kinase assay, wild type; conditions: wild type UL97; competitive with ATP (2 μM to 20 μM); Lineweaver Burke plot
Readout kind: Ki (nM)
Response body: numeric value in nM, unit text excluded.

Please give the measured Ki for this compound: CC(C)Nc1nc2cc(Cl)c(Cl)cc2n1[C@H]1O[C@@H](CO)[C@H](O)[C@@H]1O [maribavir] 10

----------
Target: UL97 H662L (Human cytomegalovirus, UniProt Q68101, H662L)
Construct: PCR reaction to generate the full length UL97; honey bee melittin secretion signal (N)
Sequence (Q68101 1-707 H662L): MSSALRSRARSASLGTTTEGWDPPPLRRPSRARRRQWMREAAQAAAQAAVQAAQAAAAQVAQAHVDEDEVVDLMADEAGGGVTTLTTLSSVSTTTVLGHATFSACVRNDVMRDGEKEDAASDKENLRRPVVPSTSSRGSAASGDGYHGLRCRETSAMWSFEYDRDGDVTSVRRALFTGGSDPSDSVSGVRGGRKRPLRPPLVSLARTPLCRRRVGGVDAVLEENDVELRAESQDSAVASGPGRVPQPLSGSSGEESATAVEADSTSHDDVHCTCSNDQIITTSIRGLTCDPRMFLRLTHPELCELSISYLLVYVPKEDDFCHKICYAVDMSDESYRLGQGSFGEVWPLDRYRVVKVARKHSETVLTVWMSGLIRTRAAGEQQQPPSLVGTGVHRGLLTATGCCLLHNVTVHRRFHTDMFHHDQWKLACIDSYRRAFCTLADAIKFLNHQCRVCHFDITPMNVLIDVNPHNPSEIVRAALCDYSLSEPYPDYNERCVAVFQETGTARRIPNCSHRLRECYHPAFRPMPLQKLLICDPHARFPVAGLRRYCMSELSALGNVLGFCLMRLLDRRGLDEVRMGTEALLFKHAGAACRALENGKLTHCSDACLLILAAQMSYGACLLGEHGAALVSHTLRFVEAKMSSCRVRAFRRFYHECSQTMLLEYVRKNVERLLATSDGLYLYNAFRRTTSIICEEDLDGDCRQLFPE
Assay: UL97 autophosphorylation protein kinase assay, H662L
Details: H662L mutant
Readout kind: IC50 (nM)
Response body: numeric value in nM, unit text excluded.

Please give the measured IC50 for this molecule: "CC(C)Nc1nc2cc(Cl)c(Cl)cc2n1[C@H]1O[C@@H](CO)[C@H](O)[C@@H]1O" 40

----------
molecular target: UL97 H520Q (Human cytomegalovirus, UniProt Q68101, H520Q); construct: PCR reaction to generate the full length UL97; honey bee melittin secretion signal (N); assay: UL97 autophosphorylation protein kinase assay, H520Q; conditions: H520Q mutant
Readout kind: pIC50
Would you please state pIC50, meaning minus log10 of the concentration in mol/L, as a bare number?

Enter reported pIC50 observed with UL97 H520Q (Human cytomegalovirus, UniProt Q68101, H520Q) for "CC(C)Nc1nc2cc(Cl)c(Cl)cc2n1[C@H]1O[C@@H](CO)[C@H](O)[C@@H]1O" 7.48

----------
target: wild type UL97 (Human cytomegalovirus); construct: PCR reaction to generate the full length UL97; honey bee melittin secretion signal (N); experiment: UL97 autophosphorylation protein kinase assay, wild type; details: wild type UL97; increasing concentrations of maribavir
Readout kind: pIC50
Would you please state pIC50, meaning minus log10 of the concentration in mol/L, as a bare number?

Please give the measured pIC50 for this compound: "CC(C)Nc1nc2cc(Cl)c(Cl)cc2n1[C@H]1O[C@@H](CO)[C@H](O)[C@@H]1O" 7.47
